- Test system: MCF-7 breast cancer cells
- Experimental Protocol: MTT cell viability assay, MCF-7
- Format: cell-based, human
- Reported Conditions: read-out: IC50 (additional test for cisplatin); MCF-7, 24 h, additional test in concentrations allowing to determine IC50
Recorded Metric: IC50 (µM)
Express your answer in µM, writing the number without its unit.

Which value of IC50 has been reported for N.N.[Cl][Pt][Cl] [cisplatin, reference compound] in the records?
93

* * *

- System: MCF-7 breast cancer cells
- Experimental Protocol: MTT cell viability assay, MCF-7
- Format: cell-based, human
- Reported Conditions: MCF-7, 48 h incubation, 5-50 μM; read-out: IC50 (cell viability, MTT)
Recorded Metric: IC50

>>> result("Cc1ccn[nH]1.Cc1ccn[nH]1.Cc1ccn[nH]1.Cc1ccn[nH]1.Cl.Cl.Cl.Cl.N=C(N)c1ccc(N=N[N]([Pt])c2ccc(C(=N)N)cc2)cc1.N=C(N)c1ccc(N=N[N]([Pt])c2ccc(C(=N)N)cc2)cc1.O.O [PtPz5]")
"22 µM"
>>> result("Cc1cc(C)[n+]([Pt-2]2([n+]3[nH]c(C)cc3C)[N](c3ccc(C(=N)N)cc3)N=[N+](c3ccc(C(=N)N)cc3)[Pt-2]([n+]3[nH]c(C)cc3C)([n+]3[nH]c(C)cc3C)[N](c3ccc(C(=N)N)cc3)N=[N+]2c2ccc(C(=N)N)cc2)[nH]1.Cl.Cl.Cl.Cl.O.O [PtPz2]")
"13 µM"
>>> result("Cc1cc(C)[n+]([Pt-2]2([n+]3c(C)cc(C)n3CO)[N](c3ccc(C(=N)N)cc3)N=[N+](c3ccc(C(=N)N)cc3)[Pt-2]([n+]3c(C)cc(C)n3CO)([n+]3c(C)cc(C)n3CO)[N](c3ccc(C(=N)N)cc3)N=[N+]2c2ccc(C(=N)N)cc2)n1CO.Cl.Cl.Cl.Cl.O.O [PtPz1]")
"11 µM"
>>> result("N.N.[Cl][Pt][Cl] [cisplatin, reference compound]")
"> 50 µM"
>>> result("Cc1c[nH][n+]([Pt-2]2([n+]3[nH]cc(C)c3C)[N](c3ccc(C(=N)N)cc3)N=[N+](c3ccc(C(=N)N)cc3)[Pt-2]([n+]3[nH]cc(C)c3C)([n+]3[nH]cc(C)c3C)[N](c3ccc(C(=N)N)cc3)N=[N+]2c2ccc(C(=N)N)cc2)c1C.Cl.Cl.Cl.Cl.O.O [PtPz3]")
"18 µM"

Which value of IC50 has been reported for CCn1ccc[n+]1[Pt-2]1([n+]2cccn2CC)[N](c2ccc(C(=N)N)cc2)N=[N+](c2ccc(C(=N)N)cc2)[Pt-2]([n+]2cccn2CC)([n+]2cccn2CC)[N](c2ccc(C(=N)N)cc2)N=[N+]1c1ccc(C(=N)N)cc1.Cl.Cl.Cl.Cl.O.O [PtPz6] in the records?
48 µM

* * *

- System: MDA-MB-231 breast cancer cells
- Experimental Protocol: MTT cell viability assay, MDA-MB-231
- Type: cell-based, human
- Reported Conditions: MDA-MB-231, 48 h incubation, 5-50 μM; read-out: IC50 (cell viability, MTT)
Recorded Metric: IC50 (µM)
Express your answer in µM, writing the number without its unit.

Please review the entries below; each comes with its answer.
>>> numeric_result("Cc1ccn[nH]1.Cc1ccn[nH]1.Cc1ccn[nH]1.Cc1ccn[nH]1.Cl.Cl.Cl.Cl.N=C(N)c1ccc(N=N[N]([Pt])c2ccc(C(=N)N)cc2)cc1.N=C(N)c1ccc(N=N[N]([Pt])c2ccc(C(=N)N)cc2)cc1.O.O")
19
>>> numeric_result("Cc1cc(C)[n+]([Pt-2]2([n+]3[nH]c(C)cc3C)[N](c3ccc(C(=N)N)cc3)N=[N+](c3ccc(C(=N)N)cc3)[Pt-2]([n+]3[nH]c(C)cc3C)([n+]3[nH]c(C)cc3C)[N](c3ccc(C(=N)N)cc3)N=[N+]2c2ccc(C(=N)N)cc2)[nH]1.Cl.Cl.Cl.Cl.O.O")
11
>>> numeric_result("Cc1c[nH][n+]([Pt-2]2([n+]3[nH]cc(C)c3C)[N](c3ccc(C(=N)N)cc3)N=[N+](c3ccc(C(=N)N)cc3)[Pt-2]([n+]3[nH]cc(C)c3C)([n+]3[nH]cc(C)c3C)[N](c3ccc(C(=N)N)cc3)N=[N+]2c2ccc(C(=N)N)cc2)c1C.Cl.Cl.Cl.Cl.O.O")
16
>>> numeric_result("Cc1cc(C)[n+]([Pt-2]2([n+]3c(C)cc(C)n3CO)[N](c3ccc(C(=N)N)cc3)N=[N+](c3ccc(C(=N)N)cc3)[Pt-2]([n+]3c(C)cc(C)n3CO)([n+]3c(C)cc(C)n3CO)[N](c3ccc(C(=N)N)cc3)N=[N+]2c2ccc(C(=N)N)cc2)n1CO.Cl.Cl.Cl.Cl.O.O")
10

// moving on: another record for IC50
Which value of IC50 has been reported for "CCn1ccc[n+]1[Pt-2]1([n+]2cccn2CC)[N](c2ccc(C(=N)N)cc2)N=[N+](c2ccc(C(=N)N)cc2)[Pt-2]([n+]2cccn2CC)([n+]2cccn2CC)[N](c2ccc(C(=N)N)cc2)N=[N+]1c1ccc(C(=N)N)cc1.Cl.Cl.Cl.Cl.O.O" in the records?
39
